# System: CB1 receptor (Homo sapiens)
# Sequence (P21554 whole entry): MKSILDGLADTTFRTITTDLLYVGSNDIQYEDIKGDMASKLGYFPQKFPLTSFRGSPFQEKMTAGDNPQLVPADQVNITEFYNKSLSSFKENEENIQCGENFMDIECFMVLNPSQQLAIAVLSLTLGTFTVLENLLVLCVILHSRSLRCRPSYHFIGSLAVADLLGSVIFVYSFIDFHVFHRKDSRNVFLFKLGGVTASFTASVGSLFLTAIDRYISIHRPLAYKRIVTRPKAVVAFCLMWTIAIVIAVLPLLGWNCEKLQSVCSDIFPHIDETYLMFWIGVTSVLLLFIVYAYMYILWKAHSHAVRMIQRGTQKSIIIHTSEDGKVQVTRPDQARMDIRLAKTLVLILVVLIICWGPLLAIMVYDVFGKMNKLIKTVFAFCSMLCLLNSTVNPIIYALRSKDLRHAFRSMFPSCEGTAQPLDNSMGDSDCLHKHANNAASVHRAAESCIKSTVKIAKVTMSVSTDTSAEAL
# Protocol Description: CB1 competitive radioligand binding assay ([3H] SR141716A)
# Design: expressed in transfected cells; host or cells: Chem-1 cells
# Cond: Table 2; read-out: CB1 Binding Ki
Readout Name: Ki (nM)
Respond with the bare value in nM.

>>> obs_value("CCCCCCC(C)(C)c1cc(O)c2c(c1)OC(C)(C)[C@@H]1CC=C(C(=O)NC3CCCCC3)C[C@@H]21")
94

Inquiry: Specify reported Ki for the compound shown: "CCCCCCC(C)(C)c1cc(O)c2c(c1)OC(C)(C)[C@@H]1CC=C(C(=O)NC[C@H](O)CO)C[C@@H]21"
Reply text: 708

Inquiry: Quote Ki reported for "CCCCCCC(C)(C)c1cc(O)c2c(c1)OC(C)(C)[C@@H]1CC=C(C(=O)NCCCO)C[C@@H]21" please.
Reply text: 420

Inquiry: Give Ki for "CCCCCCC(C)(C)c1cc(O)c2c(c1)OC(C)(C)[C@@H]1CC=C(C(=O)NC[C@@H](O)CO)C[C@@H]21"
Reply text: 619

Inquiry: Using the record for "CCCCCCC(C)(C)c1cc(O)c2c(c1)OC(C)(C)[C@@H]1CC=C(C(=O)N[C@H](C)CCO)C[C@@H]21" , state its measured Ki.
Reply text: 1230
